Below, each of the molecules is paired with its reported max response value.
Assay: qHTS Counterscreen for compound interference against the NCATS DSHEA and TCM libraries (AID 1919978);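 further: compounds preincubated with 1 µM D-luciferin or buffer before detection reagent; % of control where 0% means no effect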
Settings: firefly luciferase detection reagent interference, luminescence
Entry rule: numbers only, all in %.

Completed entries (count: 5):
Can you share its max response? I mean this molecule: C=C1CC[C@H](O)C/C1=C\C=C1/CCC[C@]2(C)[C@@H]([C@H](C)CC[C@H](C)C(C)C)CC[C@@H]12
-0.676

Can you share its max response? I mean this molecule: CCCCCC(=O)O
-1.64

Can you share its max response? I mean this molecule: CCCCC/C=C/C/C=C/CCCCCCCC(=O)O
0.865

Can you share its max response? I mean this molecule: C=CC(=C)CCC=C(C)C
1.58

Can you share its max response? I mean this molecule: CCCCC/C=C/C(=O)CCc1ccc(O)c(OC)c1
4.24

More entries:
Can you share its max response? I mean this molecule: CCCCCCCCCCCCCC(=O)OCC(O)CO (stereo not given)
2.98

Can you share its max response? I mean this molecule: CC(=O)O[C@@H]1CC[C@@]2(C)[C@@H](CC[C@]3(C)[C@@H]2C(=O)C=C2[C@@H]4[C@@H](C)[C@H](C)CC[C@]4(C)CC[C@]23C)[C@@]1(C)C(=O)O
-0.124

* * *

Experiment: qHTS Assay for Identification of Small Molecule Agonists for Hypoxia Response Element Signaling Pathway (AID 914); further: potency means the concentration at half of the fitted maximal effect
Conditions: ME-180 (cervical carcinoma) HRE-bla reporter, beta-lactamase ratio, CoCl2, 17 h
Text: NIH Molecular Libraries Screening Centers Network [MLSCN] NIH Chemical Genomics Center [NCGC] Hypoxia-inducible factor-1 (HIF-1) is the major hypoxia-regulated transcription factor that controls cellular responses to low oxygen concentration. HIF-1 is composed of two subunits: hypoxia responsive HIF-1 alpha and constitutively expressed HIF-1 beta, which is also known as aryl hydrocarbon receptor nuclear translocator. […]
Results filed as inconclusive are left out. The source made the active and inactive calls. Calls follow the shape of the dose curve; as a rule, active = well fitted activation curve with a large enough effect in the signal ratio, with a control signal flat (not every such curve was filed as active); inconclusive = small, poorly fitted or top-dose-only effect, or effect the other way, or a change in a side signal; inactive = flat fitted curve, though single readings scatter; the % refers to the signal ratio.
Below, each of the compounds is paired with its reported Potency value.

Completed entries (count: 3):
Can you share its Potency? I mean this compound: COc1cccc(-c2cncnc2NCCN2CCOCC2)c1
2.51 µM (active)

Can you share its Potency? I mean this compound: CN1CCN(c2ncc3nc(-c4cn(C)c5ccccc45)c(=O)n(CCC#N)c3n2)CC1
3.16 µM (active)

Can you share its Potency? I mean this compound: CN(C)c1ccc(-c2cncnc2NCCN2CCOCC2)cc1
1.26 µM (active)

More entries:
Can you share its Potency? I mean this compound: CCN(CC)c1ccc2cc(C(=O)Nc3ccccn3)c(=O)oc2c1
3.98 µM (active)

Can you share its Potency? I mean this compound: CN(C)c1ncc2nc(-c3ccccc3)c(=O)n(C)c2n1
2.51 µM (active)

Can you share its Potency? I mean this compound: COCCn1c(=O)c(-c2cc(F)cc(F)c2)nc2cnc(N3CCN(C)CC3)nc21
3.16 µM (active)

* * *

Biological target: Phenylethanolamine N-methyltransferase (Homo sapiens)
Assay: Confirmatory Screen for Target Class Profiling of Small Molecule Inhibitors of Methyltransferases (AID 1745852)
Conditions: MTase-Glo luminescence, SAH detection, recombinant enzyme; measured here: PNMT max response; stronger effect = lower value
readoutKind: activity (%)
Entry rule: numbers only, all in %.

Entry COCc1cc(NCCCNc2cccnc2)ncn1 , system Phenylethanolamine N-methyltransferase (Homo sapiens): what activity was measured?
-21

More entries:
Entry Cc1ccc(S(=O)(=O)c2nnn3c2nc(N2CCC(N4CCCCC4)CC2)c2ccccc23)cc1C , system Phenylethanolamine N-methyltransferase (Homo sapiens): what activity was measured?
-3.83

Entry CCCCCNC(=O)c1sc(=S)n2c1[nH]c(=O)c1ccc(C(=O)OC)cc12 , system Phenylethanolamine N-methyltransferase (Homo sapiens): what activity was measured?
-27

Entry COC(=O)C(Cc1c[nH]c2ccccc12)NC(=O)c1ccccc1Br (stereo not given) , system Phenylethanolamine N-methyltransferase (Homo sapiens): what activity was measured?
-7.16

Entry CCN(CC)CCNC(=O)CCc1nnc2n(Cc3ccc(C)cc3)c(=O)c3ccccc3n12 , system Phenylethanolamine N-methyltransferase (Homo sapiens): what activity was measured?
0.867

Entry CC1(C)[C@H](Cc2cc(-c3ccccc3)on2)C[C@@H]1NCC1CC1 , system Phenylethanolamine N-methyltransferase (Homo sapiens): what activity was measured?
-13.1

Entry O=C(Nc1ccc2ncnc(N3CCCCC3)c2c1)C1CCCCC1 , system Phenylethanolamine N-methyltransferase (Homo sapiens): what activity was measured?
-86.5

* * *

Target: Rap guanine nucleotide exchange factor 3 (Homo sapiens) (UniProt O95398)
Sequence (O95398 whole entry, looked up): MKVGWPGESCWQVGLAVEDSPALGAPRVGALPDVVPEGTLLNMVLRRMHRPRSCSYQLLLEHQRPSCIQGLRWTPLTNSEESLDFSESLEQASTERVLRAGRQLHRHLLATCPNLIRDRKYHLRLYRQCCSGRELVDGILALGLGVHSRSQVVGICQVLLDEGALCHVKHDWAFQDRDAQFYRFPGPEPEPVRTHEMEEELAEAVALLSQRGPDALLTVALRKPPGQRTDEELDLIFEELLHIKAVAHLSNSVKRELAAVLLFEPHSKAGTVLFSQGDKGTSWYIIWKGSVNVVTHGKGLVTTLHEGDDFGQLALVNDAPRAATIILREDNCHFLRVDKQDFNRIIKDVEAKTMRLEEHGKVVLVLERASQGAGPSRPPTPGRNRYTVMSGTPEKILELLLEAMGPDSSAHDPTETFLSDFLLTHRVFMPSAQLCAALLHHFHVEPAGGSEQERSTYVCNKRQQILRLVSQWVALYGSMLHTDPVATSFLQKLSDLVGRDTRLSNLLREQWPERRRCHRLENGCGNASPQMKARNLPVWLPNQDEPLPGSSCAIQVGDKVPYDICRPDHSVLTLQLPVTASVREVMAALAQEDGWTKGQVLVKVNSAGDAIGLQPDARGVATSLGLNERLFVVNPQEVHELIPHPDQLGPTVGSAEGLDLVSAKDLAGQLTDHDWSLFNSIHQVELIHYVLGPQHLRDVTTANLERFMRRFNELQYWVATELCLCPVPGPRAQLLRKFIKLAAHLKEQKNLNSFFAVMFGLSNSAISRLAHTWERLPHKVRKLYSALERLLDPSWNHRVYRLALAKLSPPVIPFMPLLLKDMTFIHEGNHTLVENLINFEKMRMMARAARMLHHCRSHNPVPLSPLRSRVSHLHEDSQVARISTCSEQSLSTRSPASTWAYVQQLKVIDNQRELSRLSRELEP
Assay: Counterscreen qHTS for antagonist of cAMP-regulated guanine nucleotide exchange factor 3 (EPAC1) (AID 1645888);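 further: fluorescence loss as bound BODIPY-GDP is released from Rap1B; % of control where 0% means no effect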
Conditions: Rap1B-BODIPY-GDP nucleotide exchange, fluorescence; series mostly up to 154 µM
Results filed as inconclusive are left out. Active and inactive are the calls of the source. Calls come from the whole dose curve; as a rule, active = well fitted inhibition curve with a large enough effect; inconclusive = small, poorly fitted or top-dose-only effect; inactive = no such curve, though single readings can be large or run the other way.
readoutKind: activity change, negative = inhibition

Completed entries (count: 5):
Can you share its activity change, negative = inhibition? I mean this molecule: CC(=O)N1N=C(c2ccc(Cl)cc2)CC1c1ccc([N+](=O)[O-])cc1 (stereo not drawn)
2.9% [at 30.8 µM] (inactive)

Can you share its activity change, negative = inhibition? I mean this molecule: O=C(NCc1cccc(Cl)c1)c1ccc(S(=O)(=O)Nc2cccc(C(F)(F)F)c2)cc1
inactive

Can you share its activity change, negative = inhibition? I mean this molecule: COC(=O)c1nc2nc(C)cc(=O)n2[nH]1
inactive

Can you share its activity change, negative = inhibition? I mean this molecule: COc1cc(/C=C2\SC(=S)N(NC(=O)c3ccc(O)cc3)C2=O)ccc1O
inactive

Can you share its activity change, negative = inhibition? I mean this molecule: O=S(=O)(c1ccc(Cl)c2ccccc12)N1CCCC1
inactive

Here's the next entry for you.
Can you share its activity change, negative = inhibition? I mean this molecule: CC(=O)C1=C(O)C2(C)c3c(O)c(C)c(O)c(C(C)=O)c3OC2CC1=O (stereo not drawn)
-6.21% [at 30.8 µM] (inactive)

* * *

Molecular target: Rap guanine nucleotide exchange factor 3 (Homo sapiens) (UniProt O95398)
Assay: Counterscreen qHTS for antagonist of cAMP-regulated guanine nucleotide exchange factor 3 (EPAC1) (AID 1645888);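 further: fluorescence loss as bound BODIPY-GDP is released from Rap1B; % of control where 0% means no effect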
Details: Rap1B-BODIPY-GDP nucleotide exchange, fluorescence; series mostly up to 154 µM
Records with an inconclusive call do not appear. Calls of active or inactive are those of the source. Calls come from the whole dose curve; as a rule, active = well fitted inhibition curve with a large enough effect; inconclusive = small, poorly fitted or top-dose-only effect; inactive = no such curve, though single readings can be large or run the other way.
readoutKind: activity change, negative = inhibition

Completed entries (count: 5):
Can you share its activity change, negative = inhibition? I mean this compound: CN(Nc1cccc(Cl)c1)c1cccc(Cl)c1
inactive

Can you share its activity change, negative = inhibition? I mean this compound: CC(Oc1ccc(Br)cc1)C(=O)NCC(c1cccs1)N1CCOCC1 (stereo unspecified)
inactive

Can you share its activity change, negative = inhibition? I mean this compound: COCCNc1nc2cc(-c3ccsc3)sc2c(=O)n1C
inactive

Can you share its activity change, negative = inhibition? I mean this compound: COc1ccc(S(=O)(=O)Nc2cccc(C)c2C)c2cccnc12
inactive

Can you share its activity change, negative = inhibition? I mean this compound: COc1ccccc1NC(=O)CSc1sc2c(O)cc(=O)[nH]c2c1C#N
0.384% [at 30.8 µM] (inactive)

Here's the next entry for you.
Can you share its activity change, negative = inhibition? I mean this compound: Cc1ccc(C(C)C)c(OCCCn2c(=O)oc3ccc(C)cc32)c1
inactive

* * *

Below, each of the molecules is paired with its reported activity value.
Molecular target: Phenylethanolamine N-methyltransferase (Homo sapiens) (UniProt P11086)
Sequence (P11086 whole entry, looked up): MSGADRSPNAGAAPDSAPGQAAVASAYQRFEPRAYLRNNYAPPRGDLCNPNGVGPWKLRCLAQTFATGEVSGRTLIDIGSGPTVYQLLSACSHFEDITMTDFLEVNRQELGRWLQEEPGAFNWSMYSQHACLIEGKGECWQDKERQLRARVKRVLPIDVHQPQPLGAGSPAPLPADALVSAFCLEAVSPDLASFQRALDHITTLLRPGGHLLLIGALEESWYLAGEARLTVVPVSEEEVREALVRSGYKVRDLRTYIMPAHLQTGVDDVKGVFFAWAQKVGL
Assay: Confirmatory Screen for Target Class Profiling of Small Molecule Inhibitors of Methyltransferases (AID 1745852)
Settings: MTase-Glo luminescence, SAH detection, recombinant enzyme; measured here: PNMT max response; stronger effect = lower value
Entry rule: numbers only, all in %.

Can you share its activity? I mean this molecule: CCN(CC)CCNC(=O)CCc1nnc2n(CCc3ccccc3)c(=O)c3ccccc3n12
3.34

* * *

Target: Rap guanine nucleotide exchange factor 4 (Homo sapiens) (UniProt Q8WZA2)
Sequence (Q8WZA2 whole entry, looked up): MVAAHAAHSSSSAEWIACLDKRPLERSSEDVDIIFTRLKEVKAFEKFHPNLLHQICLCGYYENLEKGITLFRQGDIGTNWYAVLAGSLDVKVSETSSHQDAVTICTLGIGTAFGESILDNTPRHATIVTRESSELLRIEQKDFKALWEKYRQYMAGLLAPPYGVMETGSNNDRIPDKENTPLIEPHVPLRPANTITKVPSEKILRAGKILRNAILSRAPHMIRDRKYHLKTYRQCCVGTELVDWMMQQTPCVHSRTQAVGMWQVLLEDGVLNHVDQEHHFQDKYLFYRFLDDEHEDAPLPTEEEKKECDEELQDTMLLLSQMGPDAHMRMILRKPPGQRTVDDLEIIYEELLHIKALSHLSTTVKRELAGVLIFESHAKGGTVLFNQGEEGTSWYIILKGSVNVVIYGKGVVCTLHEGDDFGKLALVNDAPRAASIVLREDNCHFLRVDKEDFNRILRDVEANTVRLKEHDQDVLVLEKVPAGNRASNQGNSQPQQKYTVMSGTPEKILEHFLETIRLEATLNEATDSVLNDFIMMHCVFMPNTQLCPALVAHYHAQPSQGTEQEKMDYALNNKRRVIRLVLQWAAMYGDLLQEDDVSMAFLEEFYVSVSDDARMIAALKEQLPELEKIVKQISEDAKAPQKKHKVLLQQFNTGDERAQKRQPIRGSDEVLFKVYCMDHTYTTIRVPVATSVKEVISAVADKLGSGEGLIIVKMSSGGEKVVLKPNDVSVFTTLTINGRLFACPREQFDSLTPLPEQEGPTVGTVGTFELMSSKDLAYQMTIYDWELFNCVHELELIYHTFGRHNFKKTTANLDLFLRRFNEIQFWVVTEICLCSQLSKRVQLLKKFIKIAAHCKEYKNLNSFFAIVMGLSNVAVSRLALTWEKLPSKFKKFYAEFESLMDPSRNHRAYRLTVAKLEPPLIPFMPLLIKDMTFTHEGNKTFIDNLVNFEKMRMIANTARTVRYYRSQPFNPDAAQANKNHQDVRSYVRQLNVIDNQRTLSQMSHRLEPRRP
Assay: Confirmatory qHTS for antagonist of cAMP-regulated guanine nucleotide exchange factor 4 (EPAC2) (AID 1645885); further: nearly all actives have a fitted effect of over 25% in size
Conditions: EPAC2 Rap1B-BODIPY-GDP exchange fluorescence, biochemical; series mostly up to 12.7 µM
Records with an inconclusive call do not appear. Active and inactive are the calls of the source. The call rests on the fitted dose curve; in most records, active means well fitted inhibition curve with a large enough effect; inconclusive means small, poorly fitted or top-dose-only effect; inactive means no such curve, though single readings can be large or run the other way.
readoutKind: outcome

Entry COc1ccc(C(=O)N(CCc2ccccc2)Cc2cccs2)c(OC)c1 , system Rap guanine nucleotide exchange factor 4 (Homo sapiens) (UniProt Q8WZA2): what outcome was measured?
inactive

Entry C=Cc1ccc(Cn2nc(-c3ccccc3)ccc2=O)cc1 , system Rap guanine nucleotide exchange factor 4 (Homo sapiens) (UniProt Q8WZA2): what outcome was measured?
inactive

Entry COc1ccc(OC)c(NC(=O)CSc2nc(O)cc(=O)n2CC(C)C)c1 , system Rap guanine nucleotide exchange factor 4 (Homo sapiens) (UniProt Q8WZA2): what outcome was measured?
inactive

* * *

Molecular target: Cytochrome P450 2D6 (Homo sapiens) (UniProt P10635)
Sequence (P10635 whole entry, looked up): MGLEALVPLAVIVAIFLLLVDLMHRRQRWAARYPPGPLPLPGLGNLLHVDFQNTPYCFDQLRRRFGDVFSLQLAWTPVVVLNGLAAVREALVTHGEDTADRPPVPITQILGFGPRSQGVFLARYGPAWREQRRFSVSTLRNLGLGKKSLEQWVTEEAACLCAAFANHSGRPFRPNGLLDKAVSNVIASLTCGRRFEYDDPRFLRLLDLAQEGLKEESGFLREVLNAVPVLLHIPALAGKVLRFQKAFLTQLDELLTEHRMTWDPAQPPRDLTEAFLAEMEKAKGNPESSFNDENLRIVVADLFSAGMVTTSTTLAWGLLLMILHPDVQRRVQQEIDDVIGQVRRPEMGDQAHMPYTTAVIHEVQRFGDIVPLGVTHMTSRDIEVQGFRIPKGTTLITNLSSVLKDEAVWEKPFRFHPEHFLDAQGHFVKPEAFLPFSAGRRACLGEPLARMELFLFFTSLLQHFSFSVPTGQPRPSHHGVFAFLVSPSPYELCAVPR
Assay: qHTS Assay for Inhibitors and Substrates of Cytochrome P450 2D6 (AID 891); further: nearly all actives have a fitted effect of over 60% in size
Conditions: recombinant CYP2D6, luciferin-ME EGE luminescence; series mostly up to 57.1 µM
Inconclusive results are not listed. The source made the active and inactive calls. The call rests on the fitted dose curve; in most records, active means well fitted inhibition curve with a large enough effect; inconclusive means small, poorly fitted or top-dose-only effect; inactive means no such curve, though single readings can be large or run the other way.
Select the matching outcome among active, inactive

Below are worked cases with known answers.
How did this test come out for O=c1cc(-c2ccc(O)c(O)c2)oc2cc(O[C@@H]3O[C@@H](CO)[C@@H](O)[C@@H](O)[C@H]3O)cc(O)c12 ?
inactive

How did this test come out for CN(C)c1ccc(-c2cc(N(C)Cc3ccco3)ncn2)cc1 ?
active

How did this test come out for CCCCN1CCC(COC(=O)c2cc(Cl)c(N)c3c2OCCO3)CC1 ?
active

How did this test come out for COc1cccc(-c2cncnc2NCc2ccccc2OC)c1 ?
active

Next item in the queue.
How did this test come out for COc1ccc2[nH]cc(CCNc3ncncc3-c3ccccc3C)c2c1 ?
active
